# assay-method-text: chemical genetic growth profiling, strain panel (AID 1159580);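 also: tested at 20 µM; growth read once vehicle control cultures reached saturation at 30 °C; 1 = growth at the plate median or of vehicle wells; lower values mean less growth of the strain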
# cond: S. cerevisiae deletion strains, growth OD, locus YAL030W, strain snc1, hits give low values
The whole screen tested about 5,500 compounds, of which about 2,000 (36%) were called active. About 18% were inconclusive and are not listed. The list shows a part of the results. *1 amine or outer side, *2 acyl side, *3 side chain or, on linkers, in order; H or OH if unused. Where a SMILES comes first, the peptide text is derived from it. Bridges are numbered along the chain shown (N, C = ends). Side-chain parts run from the residue outwards. [ ]: non-standard residue; d: D form. The star is where a group is joined. ξ: configuration not given here. ΔAla(E,3-NHCONH2) = NC(=O)N/C=C(/N)C(=O)O; X2 = NC1=NCCC(C(N[*:1])C(=O)[*:2])N1; X1 = CCC(C)C(N)C1=NC(C(=O)*)CS1; ξβ3hOrn = NCCCC(N)CC(=O)*; Orn = NCCC[CH](N)C(=O)O; Dap = NC[CH](N)C(=O)O
readout-type: normalized growth

For CCN(CC)CCNC(=O)c1cc(Cl)c(N)cc1OC , write its normalized growth. 0.974 (inactive)

For c1ccc2c(Cc3c[nH]c4ccccc34)c[nH]c2c1 , write its normalized growth. 0.785 (active)

For O=C(O)c1cc(=O)c2cccc(O)c2[nH]1 , write its normalized growth. 1.01 (inactive)

For NCCc1c[nH]c2ccccc12 , write its normalized growth. 0.969 (inactive)

For CC(=O)OCC1=C(C(=O)O)N2C(=O)[C@@H](NC(=O)CCCC(N)C(=O)O)C2SC1 (some centres not stated) , write its normalized growth. 0.998 (inactive)

For O=C1c2ccccc2C(=O)C1c1ccccc1 , write its normalized growth. 1 (inactive)

For c1ccc([C@H]2CN3CCSC3=N2)cc1 , write its normalized growth. 1.01 (inactive)

For COc1cc(-c2oc3cc(O)ccc3c(=O)c2O)ccc1O , write its normalized growth. 0.977 (inactive)

For CO[C@H]1C[C@H](O[C@H]2[C@H](C)[C@@H](OC3O[C@H](C)C[C@H](N(C)C)[C@H]3OC(C)=O)[C@@H](C)C[C@]3(CO3)C(=O)[C@H](C)[C@@H](OC(C)=O)[C@@H](C)[C@@H](C)OC(=O)[C@@H]2C)O[C@@H](C)[C@@H]1OC(C)=O (some centres not stated) , write its normalized growth. 0.989 (inactive)

For COc1cc2cc3c4cc(OC)c(OC)cc4cc[n+]3c(C)c2cc1OC , write its normalized growth. 1.01 (inactive)

For CC1=CC2C(C(C)C)CCC(C)(O)C2CC1 (configuration not stated) , write its normalized growth. 0.989 (inactive)

For COc1cc2c(cc1O)CCNC2C (configuration not stated) , write its normalized growth. 0.993 (inactive)

For O=C(O)[C@H](O)[C@@](O)(Cc1ccc(O)cc1)C(=O)O , write its normalized growth. 1.01 (inactive)

For O=C(O)c1cc(=O)c2c(Cl)cc(Cl)cc2[nH]1 , write its normalized growth. 1.02 (inactive)

For C[C@]12CCC(=O)C=C1CCC1C2[C@@H](O)C[C@@]2(C)C1CC[C@]2(O)C(=O)COC(=O)CCC(=O)O (some centres not stated) , write its normalized growth. 1.01 (inactive)

For COc1cc(O)cc(OC)c1OC , write its normalized growth. 0.977 (inactive)

For CC(=O)[C@@]1(O)CCC2C3CCC4=CC(=O)CC[C@]4(C)C3CC[C@@]21C (some centres not stated) , write its normalized growth. 0.998 (inactive)

For CC1(C)C(=O)[C@@H]2C[C@@]3(O)C4=CC(=O)O[C@@H](c5ccoc5)[C@]4(C)CCC3[C@@](C)(C2=O)[C@H]1CC(=O)O (some centres not stated) , write its normalized growth. 0.997 (inactive)

For COc1cc(/C=C/C(=O)N2CCC=CC2=O)cc(OC)c1OC , write its normalized growth. 1 (inactive)

For COc1ccc(C2C(=O)c3ccccc3C2=O)cc1 , write its normalized growth. 1 (inactive)

For CC1=NN(c2ccccc2)C(=O)C1 , write its normalized growth. 0.998 (inactive)

For O=c1oc2c(O)c(O)cc3c(=O)oc4c(O)c(O)cc1c4c23 , write its normalized growth. 0.817 (active)

For O=c1c(O)c(-c2ccc(O)c(O)c2)oc2cc(O)ccc12 , write its normalized growth. 1 (inactive)

For C[C@]12CCC(=O)C=C1CCC1C2C(=O)C[C@@]2(C)C1CC[C@]2(O)C(=O)CO (some centres not stated) , write its normalized growth. 1 (inactive)

For NCCCC(N)CC(=O)NCC1NC(=O)C(CO)NC(=O)C(N)CNC(=O)C(C2CCN=C(N)N2)NC(=O)/C(=C\NC(N)=O)NC1=O (stereo not drawn) (H-[Dap]S[Dap](ξβ3hOrn)[ΔAla(E,3-NHCONH2)][X2]; lactam 1-C; configuration not given here) , write its normalized growth. 1.03 (inactive)

For CN[C@@H]1[C@@H](O[C@H]2O[C@H](CO)[C@@H](N)[C@H](O)[C@H]2O)O[C@H]2C[C@@H](N)[C@H](O[C@H]3[C@H](O)[C@@H](O)[C@H](N)C[C@@H]3N)O[C@@H]2[C@@H]1O , write its normalized growth. 1.01 (inactive)

For NC[C@H]1O[C@H](O[C@H]2C(O[C@@H]3O[C@H](CO)[C@@H](O)[C@H]3O)[C@@H](O)[C@H](N)C[C@@H]2N)[C@H](N)[C@@H](O)[C@@H]1O (some centres not stated) , write its normalized growth. 0.994 (inactive)

For COC(=O)C[C@H]1C(C)(C)[C@@H](O)[C@@H]2CC3=C4C=C(OC)O[C@@H](c5ccoc5)[C@]4(C)CCC3[C@@]1(C)C2=O (some centres not stated) , write its normalized growth. 1 (inactive)

For C#C[C@]1(O)CCC2C3CCC4=Cc5oncc5C[C@]4(C)C3CC[C@@]21C (some centres not stated) , write its normalized growth. 0.94 (inactive)

For CCCCCCCCCCCCCCCCCCOCC(O)CO (configuration not stated) , write its normalized growth. 0.991 (inactive)

For NC(=O)N1c2ccccc2C=Cc2ccccc21 , write its normalized growth. 1.04 (inactive)

For CCOc1cccc(C(=O)c2ccc(O)c(O)c2O)c1 , write its normalized growth. 0.928 (active)

For COc1ccc(-c2oc3ccccc3c(=O)c2O)cc1OC , write its normalized growth. 0.739 (active)

For CCC(C)C(N)C1=NC(C(=O)NC(CC(C)C)C(=O)NC(CCC(=O)O)C(=O)NC(C(=O)NCCCCC2NC(=O)C(CC(N)=O)NC(=O)C(CC(=O)O)NC(=O)C(Cc3cnc[nH]3)NC(=O)C(Cc3ccccc3)NC(=O)C(C(C)CC)NC(=O)C(CCCN)NC2=O)C(C)CC)CS1 (stereo not drawn) (cyclo(DNK([Ile-Glu-Leu-X1])[Orn]IFH); configuration not given here) , write its normalized growth. 0.997 (inactive)

For CC(=O)NO , write its normalized growth. 0.99 (inactive)

For C#CC1(O)CCC2C3CCC4=CC(=O)CCC4(C)C3CCC21C (configuration not stated) , write its normalized growth. 0.995 (inactive)

For Cc1c(NC(=O)c2cccnc2)c(=O)n(-c2ccccc2)n1C , write its normalized growth. 1 (inactive)
